molecular target: human renin (Homo sapiens); assay: Determination of Renin IC50 by tGFP FRET Assay; conditions: Human recombinant renin, tandem GFP substrate 650 nM, renin and compound incubated 60 minutes before substrate, pH 7.4
Sequence (P00797 67-406): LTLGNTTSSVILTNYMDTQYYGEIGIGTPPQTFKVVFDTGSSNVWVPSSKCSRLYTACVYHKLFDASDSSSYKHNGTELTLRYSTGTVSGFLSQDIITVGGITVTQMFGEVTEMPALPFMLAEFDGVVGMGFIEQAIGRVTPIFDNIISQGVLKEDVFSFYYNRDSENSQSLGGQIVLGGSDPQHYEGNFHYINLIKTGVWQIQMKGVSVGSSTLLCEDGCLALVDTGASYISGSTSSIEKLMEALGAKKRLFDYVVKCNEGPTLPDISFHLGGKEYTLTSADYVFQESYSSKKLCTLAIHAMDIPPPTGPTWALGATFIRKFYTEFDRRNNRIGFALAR
Threshold-based label: IC50 under 600 nM gives Y, IC50 not under 600 nM gives N.

Please review the following examples before continuing.
1) COC(=O)c1ccc2cc(CN[C@@H]3CNCC[C@@H]3c3ccc(OCCCOCc4ccccc4OC)cc3)ccc2c1: Y
2) O=C(O)c1ccc2cc(CN[C@@H]3CNCC[C@@H]3c3ccc(OCCCOCc4ccccc4F)cc3)ccc2c1: N
3) O=C1CCC(=O)N1CCOc1cccc(CN[C@H]2CNCC[C@H]2c2ccc(OCCCOCc3ccccc3F)cc2)c1 (racemic): N
4) COc1ccccc1COCCCOc1ccc([C@H]2CCNC[C@H]2N(C)Cc2ccc3ccccc3c2)cc1 (racemic): Y
5) COC(=O)c1cccc(CN[C@@H]2CNCC[C@@H]2c2ccc(OCCCOCc3ccccc3F)cc2)n1 (racemic): N
6) COc1ccccc1COCCCOc1ccc([C@H]2CCNC[C@H]2NCc2ccc3occc3c2)cc1 (racemic): Y
7) COc1ccccc1COCCCOc1ccc([C@H]2CCNC[C@H]2NCc2ccc3c(c2)N(CCN(C)C)CCC3)cc1 (racemic): N
8) O=C1CCCN1CCOc1cccc(CN[C@H]2CNCC[C@H]2c2ccc(OCCCOCc3ccccc3F)cc2)c1 (racemic): N

Request: Is IC50 of COc1ccccc1COCCCOc1ccc([C@H]2CCNC[C@H]2NCc2ccc3cc(O)ccc3c2)cc1 (racemic) strictly below 600 nM?
Result: N

Request: Here is the next compound: COc1ccccc1COCCCOc1ccc([C@H]2CCNC[C@H]2NCc2ccc3c(C(=O)O)cccc3c2)cc1
Result: N

Request: COc1ccc2cc(CN[C@@H]3CNCC[C@@H]3c3ccc(OCCCOCc4ccccc4OC)cc3)ccc2c1 (racemic) , same question.
Result: Y

Source listed as patent US20040204455A1.
